molecular target: T1, human serum albumin (human, UniProt P02768 25-609); test: SPR (Biacore), HSA amine-coupled on CM5, pH 7
T1 construct: also called HSA
quantity.name: koff

Ask | Which koff is reported for this binder? 4B6 (VHH, Tested as periplasmic extract) VHH: KVQLVESGGGLVQVGGSLRLSCVASGRTYGGNAMAWFRQAPGKEREFVAGIDWSSENTRYTDSVKGRFTISRDNAKNTMYLQMNSLKPEDTAVYYCAAGTSWGALASRLENAYSAWGQGTQVTVSS
Reply | 0.000368 s⁻¹

Ask | Also need 4B10 (VHH, Tested as periplasmic extract) VHH: EVQLVESGGGLVQAGDSLRLSCAASGRTFSSYAMGWFRQAPGTERQFVARITGKGDSTDYADSVRGRFTISRDNAKNTVYLQMNSLKPEDTAVYYCAADAFNSLLQAGRAEYWGQGTQVTVSS , thanks.
Reply | 0.0499 s⁻¹

Ask | Now give it for 4A2 (VHH, Tested as periplasmic extract) VHH: EVQLVESGGGLVQAGGSLRLSCAASGLSFSSYAMGWFRQAPGKEREFVAAIRRREGNSYYADSVKGRFTISRDSAKNTVYLQMNSLKPEDTALYSCAATAPHYSGSFAYAGGYDYWGQGTQVTVSS too.
Reply | 0.00642 s⁻¹

Ask | Next binder: 4B8 (VHH, Tested as periplasmic extract) VHH: EVQLVESGGGLVQAGGSLRLSCAASGGTYSGNAMAWFRQAPGKEREFVAGIDWSSENTRYIDSVKGRFTISRDNAKNTMYLQMNSLKPEDTAVYYCAAGTSWGALASRLEAAYSSWGQGTQVTVSS
Reply | 0.000741 s⁻¹
